- TEST: CREB reporter modulators without forskolin, primary screen, cell-based, PC12, CRE-LacZ reporter, unstimulated (AID 1145)
- EXPERIMENTAL_PARAMETERS: no forskolin, luminescence, 4.5 h, higher = more signal, called active from +8 up or from −8 down
Class MET: z-score at least -0.07. Class NOT MET: z-score below -0.07.

O=C1[C@H]2[C@H]3[C@H](O)[C@H](O)CC(=NOC[C@@H](O)COCc4ccco4)[C@@H]3CC[C@H]2C(=O)N1C1CCCCC1    MET

Could you now look at the following compound, please?
Threshold query (z-score >= -0.07) on O=C1[C@H]2[C@H]3[C@H](O)[C@H](O)CC(=NO[C@@H]4O[C@H](CO)[C@@H](O)[C@H](O)[C@H]4O)[C@@H]3CC[C@H]2C(=O)N1c1cccc(Oc2ccccc2)c1
MET
